Sourced from ChEMBL document CHEMBL1152212

assayed-system: Sodium-dependent serotonin transporter (Rattus norvegicus, UniProt P31652)
Sequence (P31652 whole entry): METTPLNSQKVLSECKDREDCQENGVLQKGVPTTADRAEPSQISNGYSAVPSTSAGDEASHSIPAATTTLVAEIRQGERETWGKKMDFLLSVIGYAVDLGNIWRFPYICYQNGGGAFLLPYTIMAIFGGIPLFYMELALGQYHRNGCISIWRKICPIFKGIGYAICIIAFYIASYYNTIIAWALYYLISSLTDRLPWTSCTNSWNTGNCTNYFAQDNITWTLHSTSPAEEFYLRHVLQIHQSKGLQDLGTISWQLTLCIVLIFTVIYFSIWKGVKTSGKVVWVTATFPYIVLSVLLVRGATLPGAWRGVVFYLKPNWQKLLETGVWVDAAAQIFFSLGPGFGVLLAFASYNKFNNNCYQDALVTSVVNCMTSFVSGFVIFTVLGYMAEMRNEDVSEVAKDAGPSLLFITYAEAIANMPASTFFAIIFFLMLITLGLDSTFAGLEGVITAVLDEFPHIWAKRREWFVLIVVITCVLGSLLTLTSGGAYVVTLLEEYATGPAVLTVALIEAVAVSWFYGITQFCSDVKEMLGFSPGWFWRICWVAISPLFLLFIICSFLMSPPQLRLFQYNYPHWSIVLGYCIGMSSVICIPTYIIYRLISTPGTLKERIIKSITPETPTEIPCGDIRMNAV
method-notes: Displacement of [3H]MADAM from SERT in rat brain cortex membrane
Format: cell membranes
Collected pKi values appear next to each entry.
Kindly note that pKi refers to -log10 of the concentration in mol/L and answer with the value alone.

smiles_string=Cc1ccc(Sc2ccccc2CN(C)C)c(NC(=O)c2ccc(F)cc2)c1 metric_name=pKi experimental_result=7.84
smiles_string=Cc1ccc(Sc2ccccc2CN(C)C)c(NCc2ccc(F)cc2)c1 metric_name=pKi experimental_result=8.00

# compound Cc1ccc(Sc2ccccc2CN(C)C)c(NCc2ccc([N+](=O)[O-])cc2)c1 ; its pKi = 7.22
